System: Bean
Experiment: Post-emergent herbicidal test, bean
Assay type: in vivo
Design: key: 1: no perceptible injury; 2: intermediate degrees of injury based upon the number and extent to which leaves were injured; 3: intermediate degrees of injury based upon the number and extent to which leaves were injured; 4: intermediate degrees of injury based upon the number and extent to which leaves were injured; 5: the plant was dead
Settings: Table II; 2500 parts per million; after ten days
// reported Post-Emergent Herbicidal, Bean (injury rating) per item
resultType: Post-Emergent Herbicidal, Bean (injury rating)

# molecule, targetOfAssay, observedResult
rows = [
    ("Cc1ccccc1C1C(=O)C2CCCCC2C1=O (centres unmarked)", "Bean", 2),
    ("Cc1ccc(C2C(=O)C3CCCCC3C2=O)c(C)c1 (centres unmarked)", "Bean", 1),
    ("Cc1ccc(C)c(C2C(=O)c3ccccc3C2=O)c1 [Reference II Page 146, Compound 6, reference compound]", "Bean", 1),
    ("Cc1ccccc1C1C(=O)CCC1=O", "Bean", 3),
    ("Cc1ccccc1C1C(=O)c2ccccc2C1=O [Reference I Page 3, Compound 1, reference compound]", "Bean", 2),
    ("Cc1ccc(C)c(C2C(=O)C3CCCCC3C2=O)c1 (centres unmarked)", "Bean", 1),
    ("Cc1ccc(C2C(=O)CCC2=O)c(C)c1", "Bean", 1),
    ("Cc1ccc(C2C(=O)c3ccccc3C2=O)c(C)c1 [Reference II Page 146, Compound 9, reference compound]", "Bean", 1),
]

----------
System: egg of the two-spotted mite (Tetranychus urticae (Koch))
Test: Mite Ovicide Test (egg); note: test concentration or dose not given here
Assay type: in vivo
Parameters: key: A: Excellent Control; B: Partial Control; No Control
Details: Table I; unhatched/hatched eggs four days after spraying

# compound, Miticidal, Egg (control rating)
records = [
    ("Cc1ccccc1C1C(=O)C2CCCCC2C1=O (stereo not shown)", "A"),
    ("Cc1ccc(C)c(C2C(=O)CCC2=O)c1", "B"),
    ("O=C1CCC(=O)C1c1ccc(Cl)cc1Cl", "B"),
    ("O=C1CCC(=O)C1c1ccccc1Cl", "C"),
]
